# Read-out: serum amyloid A (SAA), SAA1 (gene 6288)
# testDescription: BSK_CASM3C_SAA: BioMAP Diversity Plus: CASM3C Assay for serum amyloid A (SAA) Biomarker Activity (AID 2283049);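 further: SAA protein level quantified by ELISA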
# measurementContext: primary human coronary artery smooth muscle cells; actives raise or lower the signal
Active and inactive are the calls of the source. How the source made its calls: active means hit-call score of the fitted dose curve at least 0.9, where 1 is the maximum; inactive means score below 0.9.
Outcome codes: Yes = active, No = inactive

>>> assignedclass("O=c1c2ccccc2oc2ccccc12")
"No"
>>> assignedclass("CCCCCCCCCCCCCCCC[N+](C)(C)CC")
"Yes"
>>> assignedclass("O=C(Nc1ccccc1SSc1ccccc1NC(=O)c1ccccc1)c1ccccc1")
"Yes"
>>> assignedclass("S=C(NC1CCCCC1)NC1CCCCC1")
"No"
>>> assignedclass("C#CC1(O)CC[C@H]2[C@@H]3CCC4=CCCC[C@@H]4[C@H]3CC[C@@]21C (stereo partly drawn)")
"Yes"
>>> assignedclass("CCOc1nc(F)cc2nc(S(=O)(=O)Nc3c(Cl)cccc3C(=O)OC)nn12")
"No"
>>> assignedclass("CCOC(=O)c1ccccc1C(=C1C=C(Br)C(=O)C(Br)=C1)c1cc(Br)c(O)c(Br)c1")
"No"
>>> assignedclass("C=CC(=O)OCC(Br)CBr (stereo not drawn)")
"No"
>>> assignedclass("CN1C(=O)N(C)C(O)C1O (stereo not drawn)")
"No"
>>> assignedclass("CCCCNc1ccc(NCCCC)c2c1C(=O)c1ccccc1C2=O")
"No"
>>> assignedclass("N#[N+]c1ccc2c(S(=O)(=O)[O-])cccc2c1O")
"No"
>>> assignedclass("C=CCOc1c(Br)cc(Br)cc1Br")
"Yes"
>>> assignedclass("CCO[Si](C)(OCC)OCC")
"No"

---

# targetOrSystem: Retinoic acid receptor RXR-alpha (Homo sapiens) (UniProt P19793)
# Sequence (P19793 whole entry, looked up): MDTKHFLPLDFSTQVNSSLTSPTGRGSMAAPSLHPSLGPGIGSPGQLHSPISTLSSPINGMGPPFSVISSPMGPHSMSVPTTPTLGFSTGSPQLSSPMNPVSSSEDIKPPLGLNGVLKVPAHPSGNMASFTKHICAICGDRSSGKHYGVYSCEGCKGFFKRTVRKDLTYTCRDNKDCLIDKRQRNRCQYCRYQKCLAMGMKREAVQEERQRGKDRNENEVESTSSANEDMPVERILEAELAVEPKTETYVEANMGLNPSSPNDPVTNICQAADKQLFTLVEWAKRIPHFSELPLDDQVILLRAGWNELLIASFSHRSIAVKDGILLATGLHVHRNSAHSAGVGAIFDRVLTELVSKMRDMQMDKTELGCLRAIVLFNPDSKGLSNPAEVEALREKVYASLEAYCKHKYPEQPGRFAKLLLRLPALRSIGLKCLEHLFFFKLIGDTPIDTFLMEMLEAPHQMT
# testDescription: OT_NURR1_NURR1RXRa_1440: Odyssey Thera (OT) 24-hour HEK293T Protein Complementation Assay for Nurr1/retinoid X receptor (RXR) (AID 2283386)
Inconclusive results are not listed. Active and inactive are the calls of the source. The calls were made as follows: active = hit-call score of the fitted dose curve at least 0.9, where 1 is the maximum; inconclusive = response in the unintended direction; inactive = score below 0.9.
Outcomes: yes (active), no (inactive)

>>> assignedclass("Cn1c([N+](=O)[O-])cnc1COC(N)=O")
"no"
>>> assignedclass("CCCCCCCOC(=O)CCC")
"no"
>>> assignedclass("NC(=O)c1ccccc1O")
"no"
>>> assignedclass("CCCCCCCC/C=C\\CCCCCCCC(=O)OCCO")
"yes"
>>> assignedclass("CN(C)c1ccc(C(=N)c2ccc(N(C)C)cc2)cc1")
"yes"
>>> assignedclass("CCCCCCCCCCCCCOP(=O)(O)O")
"no"
>>> assignedclass("Cc1ccc(C(C)(C)C)cc1")
"no"
>>> assignedclass("c1ccc2c(c1)ccc1cc3c(ccc4ccccc43)cc12")
"no"
>>> assignedclass("CC(C)(C)c1ccc(OC(=O)c2ccccc2O)cc1")
"yes"
>>> assignedclass("CCOC(=O)CC")
"no"
>>> assignedclass("CCCCC/C=C\\C/C=C\\CCCCCCCC(=O)OC")
"yes"
>>> assignedclass("CCCCOCCOC(=O)COc1nc(Cl)c(Cl)cc1Cl")
"no"
>>> assignedclass("Cc1cc(C)c(C)cc1C")
"no"
>>> assignedclass("CC(=O)[C@H]1[C@H](C#N)C[C@H]2[C@@H]3CC=C4C[C@@H](O)CC[C@]4(C)[C@H]3CC[C@@]21C")
"no"
>>> assignedclass("CCCCC(CC)CCC(CC(C)C)OS(=O)(=O)O (stereo not given)")
"no"
>>> assignedclass("CC(C)c1ccc2cc(C(C)C)ccc2c1")
"yes"
>>> assignedclass("CC(C)(C)c1ccc(-c2ccc(C(C)(C)C)cc2)cc1")
"yes"
>>> assignedclass("CC(CC=O)CCCC(C)(C)O (stereo not given)")
"no"
>>> assignedclass("O=S(=O)(O)c1ccccc1C=Cc1ccc(-c2ccc(C=Cc3ccccc3S(=O)(=O)O)cc2)cc1")
"yes"
>>> assignedclass("O=C(C(Cl)Cl)N1CCOC12CCCCC2")
"no"
>>> assignedclass("CCN(CCC#N)c1ccc(N=Nc2c(Cl)cc([N+](=O)[O-])cc2Cl)cc1")
"yes"
>>> assignedclass("CCCCC/C=C\\CCC=O")
"no"
>>> assignedclass("CC(C)=CCC[C@H](C)CCO")
"no"
>>> assignedclass("CO[Si](OC)(OC)c1ccccc1")
"no"
>>> assignedclass("OC1CCCC1")
"no"
>>> assignedclass("CC=C1CC2C=CC1C2 (stereo not given)")
"no"
>>> assignedclass("CCO[Si](C)(OCC)OCC")
"no"
>>> assignedclass("C1=Cc2ccccc2C1")
"no"
>>> assignedclass("Cc1cc(C)c(C(=O)O)c(C)c1")
"no"
>>> assignedclass("O=S1(=O)OC(c2ccc(O)cc2)(c2ccc(O)cc2)c2ccccc21")
"no"
